# credit: paper PMC9352680

system_tested: T1, PUF4 RNA-binding domain (Saccharomyces cerevisiae, UniProt P25339 537-888)
T1 sequence: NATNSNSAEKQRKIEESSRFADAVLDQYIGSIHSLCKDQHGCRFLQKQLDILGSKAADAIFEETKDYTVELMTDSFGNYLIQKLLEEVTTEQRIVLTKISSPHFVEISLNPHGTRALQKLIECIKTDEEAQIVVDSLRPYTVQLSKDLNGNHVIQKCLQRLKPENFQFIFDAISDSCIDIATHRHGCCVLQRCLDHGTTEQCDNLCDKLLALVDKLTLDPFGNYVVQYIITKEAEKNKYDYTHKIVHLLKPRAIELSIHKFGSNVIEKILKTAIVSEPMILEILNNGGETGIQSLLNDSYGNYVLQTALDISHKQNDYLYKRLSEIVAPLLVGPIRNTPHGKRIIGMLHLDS
method_summary: Mg; RNA-MaP; 20 mM Na-HEPES pH 7.4, 30 mM KOAc, 0.75 mM MgCl2, 0.1% Tween-20, 5% glycerol, 0.1 mg/mL BSA, 2 mM DTT; 25 C; 0.0125-409.6 nM protein
test_context: tags: N-His6-TEV cleaved; C-SNAP kept, Cy3B-labelled; label: tethered on chip by stalled RNA polymerase
pKd: −log10 of the molar value.

| binder | pKd |
| --- | --- |
| Ie_S4_P4E.1_K4.1_C4.1_H4.1_A4.1_[+6TCTC]_F4.1_T4.1 (ssRNA) RNA: UUUGACAACUGAUCGUUCUUUCUUGUAUAUCUCUUAUUCUUUCUCGAUCAGUUGUCUUU | 7.81 |
| Ic_S2_P5E.1_K5.1_C5.1_H5.1_A5.1_[T5C]_[A7T]_F5.1_[T8C]_[T9C]_[A10C]_T5.1 (ssRNA) RNA: UUUGAUUAAUAUGAUAUCGUUCUUUCUUGUACUUCCCUUCUUUCUCGAUAUCAUAUUAAUCUUU | 6.83 |
| Ie_S2_P5E.1_K5.1_C5.1_H5.1_A5.1_[+5CCTC]_F5.1_T5.1 (ssRNA) RNA: UUUGAUUAAUAUGAUAUCGUUCUUUCUUGUAUCCUCUAUUAUUCUUUCUCGAUAUCAUAUUAAUCUUU | 7.99 |
